System: H-125 cells
protocol: Cytotoxic effect on cultured human tumour cells (MTS, 72 h)
Assay type: cell-based
condition.parameters: NCI-H125, H-125 cells, 72 h, MTS, absorbance 492 nm, read-out: Inhibitory concentration 50 (IC50)
Where a SMILES comes first, the peptide text is derived from it.
readout.type: IC50 (µM)
Provide only the numeric value, understood in µM.

INSERT INTO results (compound, target_or_test_system, readout_type, unit_of_measurement, numeric_result) VALUES
  ('NCC(=O)NCC(=O)NCC(=O)NCC(=O)O [C31416] (H-GGGG-OH)', 'H-125 cells', 'IC50', 'µM', 0.109);

(Q) # query: IC50 of entry CC(C)NC(=S)Nc1c(N)nc(O)nc1O
(A) 0.098

====

target.or.test.system: oncoprotein E7 from Human Papilloma Virus type 16 as GST fusion protein (E7-GST), phosphorylated by CK2 enzyme (Human papillomavirus type 16, UniProt P03129)
Sequence (P03129 whole entry, looked up, the tested form may be a part): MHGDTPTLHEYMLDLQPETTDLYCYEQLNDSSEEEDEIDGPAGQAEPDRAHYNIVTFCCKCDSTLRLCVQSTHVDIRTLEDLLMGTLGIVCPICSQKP
condition.parameters: read-out: Inhibitory concentration 50 (IC50)
readout.type: pIC50
Please treat pIC50 as minus the base-10 logarithm of the molar concentration.

INSERT INTO measurements (compound, readout_type, numeric_result) VALUES
  ('CCOC(=O)c1cc[nH]c1CC(=O)NN', 'pIC50', 7.59);

(Q) Param item = CC(C)NC(=S)Nc1c(N)nc(O)nc1O ; retrieve measured pIC50.
(A) 7.52

(Q) Also check N=C(N)C(NC=O)C(=O)NCc1ccccc1 (stereo not drawn)
(A) 7.64

(Q) And what about the compound O=C(O)CCNC(=O)NCCC(=O)O ?
(A) 7.70

(Q) What about this compound? NC(CC(=O)NC(=O)OCc1ccccc1)C(=O)O (stereo not drawn)
(A) 7.47

(Q) Thanks! And CC(C)(C)NC(=O)NCCCl ?
(A) 7.57
